Data provenance: patent US20090291081A1

# Target Of Assay: T1, human IL-1α (human, UniProt P01583 113-271)
# T1 construct: also called IL-1alpha; hIL-1α
# T1 sequence (looked up): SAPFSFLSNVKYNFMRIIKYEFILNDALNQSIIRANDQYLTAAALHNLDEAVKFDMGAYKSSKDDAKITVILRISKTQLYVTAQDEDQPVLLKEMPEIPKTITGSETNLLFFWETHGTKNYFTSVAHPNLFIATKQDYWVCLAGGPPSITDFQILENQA
# Measurement Notes: Table 62 IC50; RBA presumed
pIC50: −log10 of the molar value.
Experimental Readout: pIC50

Worked examples follow.
{"Binder": "ABT1-95-80 (other, VK dAb) VL: DIQMTQSPSSLSASVGDRVTITCRASQPIVRNLRWYQQKPGKAPKLLIYSVSYLEPGVPSRFSGSGSGTDFTLTISSLQPEDFATYHCQQGYRWPVTFGQGTKVEIKR", "Experimental Value": 9.52}
{"Binder": "ABT1-162 (other, VK dAb) VL: DIQMTQSPSSLSASVGGRVTITCRASHYIRNRLHWYQQKPGKAPKLLIARGSALQSGVPSRFSGSGSGTDFTLTISSLQPEDFATYYCVQDGYLPPTFGQGTKVEIKR", "Experimental Value": 6.00}

(I) ABT1-122-21 (other, VK dAb) VL: DIQMTQSPSSLSASVGDRVTITCRASQPIWTELNWYQQKPGKAPKLLIYGSSSLQSGVPTRFSGSGSGTDFTLTISSLQPEDFATYYCQQFAYFPATFGQGTKVEIKR
(II) ABT1-95-74 (other, VK dAb) VL: DIQMTQSPSSLSASVGDRVTITCRASQPIVRNLRWYQQRPGKAPKLLIYSGSYLEPGVPSRFSGSGSGTDFTLTISSLQPEDFATYHCQQGYRWPVTFGQGTKVEIKR
Given the two records I and II , choose the one whose pIC50 value is lower. Please respond with the label that marks your chosen entry.
I
(I: 7.10, II: 9.52)
